Can you tell me T47D MSA IC50 for the items I'm about to list?
Target: T1, ferroportin endogenously expressed on T47D cells (HTB 133, ATCC) (human, UniProt Q9NP59 1-571)
T1 sequence (looked up): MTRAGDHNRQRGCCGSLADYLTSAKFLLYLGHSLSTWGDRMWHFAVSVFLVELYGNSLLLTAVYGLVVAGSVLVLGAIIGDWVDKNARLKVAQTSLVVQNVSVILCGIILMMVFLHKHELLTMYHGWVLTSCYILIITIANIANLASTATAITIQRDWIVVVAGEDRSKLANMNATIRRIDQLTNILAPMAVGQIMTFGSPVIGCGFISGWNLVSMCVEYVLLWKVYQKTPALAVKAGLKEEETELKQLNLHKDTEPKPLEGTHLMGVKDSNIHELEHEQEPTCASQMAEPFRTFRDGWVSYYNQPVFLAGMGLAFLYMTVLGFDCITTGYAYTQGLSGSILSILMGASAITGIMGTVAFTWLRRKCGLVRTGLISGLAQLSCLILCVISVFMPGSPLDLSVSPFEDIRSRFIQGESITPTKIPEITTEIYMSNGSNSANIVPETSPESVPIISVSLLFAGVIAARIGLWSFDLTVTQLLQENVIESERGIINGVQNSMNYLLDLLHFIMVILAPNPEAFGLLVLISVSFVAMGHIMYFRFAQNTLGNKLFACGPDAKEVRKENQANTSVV
Assay: cell-based or functional assay
Starred links: 1 amine or outer side, 2 acyl side, 3 side chain; linkers in the order of their positions; H or OH if unused. Positions of bridges follow the written chain, without caps; N, C: chain ends. Non-standard residues stand in square brackets, D forms with d. Groups on a side chain read outwards from the residue. *: point of attachment. Dip = N[C@H](C(=O)O)C(c1ccccc1)c1ccccc1; γGlu = O=C(O)[C@H](CCC(=O)[*:2])N[*:1]; Palmitoyl = CCCCCCCCCCCCCCCC(=O)*; β3hF = N[C@H](CC(=O)O)Cc1ccccc1; Isovaleryl = CC(C)CC(=O)*; Ahx = NCCCCCC(=O)O
Give the number; nM is assumed, so skip it.

What the record says about XETHXPXX (N-term Isovaleric Acid; Dpa4; Lys(bAla_Palm)6; C-term N_Butyl_Phe) [Isovaleric Acid-E-T-H-[Dpa]-P-[Lys(bAla_Palm-N_Butyl_Phe] : T47D MSA IC50 is 46.1

What the record says about Isovaleryl-ETH[Dip]PAIKK([Ahx-Palmitoyl])-NH2 (lactam 1-8 (inferred)) [Isovaleric Acid-E-T-H-[Dpa]-P-A-I-K-[Lys(Ahx_Palm)]-NH2] : T47D MSA IC50 is 10.6

What the record says about XETHXPAIXXXX (N-term Isovaleric Acid; Dpa4; 123 Triazole8; bhPhe9; Lys(Ahx_Palm)10; (D)Lys11; C-term NH2; cyclized A-123Triazole (side-chain C of alanine and C5 of triazole joined by a C-C bond)) [Isovaleric Acid-E-T-H-[Dpa]-P-A-I-[123 Triazole]-[bhPhe]-[Lys(Ahx_Palm)]-[(D)Lys]-NH2] : T47D MSA IC50 is 10.8

What the record says about Isovaleryl-ETH[Dip]PAIK(Ac)[β3hF]-NH2 [Isovaleric Acid-E-T-H-[Dpa]-P-A-I-[Lys(Ac)]-[bhPhe]-NH2] : T47D MSA IC50 is 355

What the record says about Isovaleryl-KTH[Dip]PAID[β3hF]K([Ahx-Palmitoyl])R-NH2 (lactam 1-8; SMILES CCCCCCCCCCCCCCCC(=O)NCCCCCC(=O)NCCCC[C@H](NC(=O)C[C@H](Cc1ccccc1)NC(=O)[C@@H]1CC(=O)NCCCC[C@H](NC(=O)CC(C)C)C(=O)N[C@@H]([C@@H](C)O)C(=O)N[C@@H](Cc2c[nH]cn2)C(=O)N[C@@H](C(c2ccccc2)c2ccccc2)C(=O)N2CCC[C@H]2C(=O)N[C@@H](C)C(=O)N[C@@H]([C@@H](C)CC)C(=O)N1)C(=O)N[C@@H](CCCNC(=N)N)C(N)=O) [Isovaleric Acid-K-T-H-[Dpa]-P-A-I-D-[bhPhe]-[Lys(Ahx_Palm)]-R-NH2] : T47D MSA IC50 is 3.96

What the record says about Isovaleryl-ETH[Dip]PAI[dK][β3hF]K([Ahx-Palmitoyl])[dK]A-NH2 (SMILES CCCCCCCCCCCCCCCC(=O)NCCCCCC(=O)NCCCC[C@H](NC(=O)C[C@H](Cc1ccccc1)NC(=O)[C@@H](CCCCN)NC(=O)[C@@H](NC(=O)[C@H](C)NC(=O)[C@@H]1CCCN1C(=O)[C@@H](NC(=O)[C@H](Cc1c[nH]cn1)NC(=O)[C@@H](NC(=O)[C@H](CCC(=O)O)NC(=O)CC(C)C)[C@@H](C)O)C(c1ccccc1)c1ccccc1)[C@@H](C)CC)C(=O)N[C@H](CCCCN)C(=O)N[C@@H](C)C(N)=O) [Isovaleric Acid-E-T-H-[Dpa]-P-A-I-[(D)Lys]-[bhPhe]-[Lys(Ahx_Palm)]-[(D)Lys]-A-NH2] : T47D MSA IC50 is 5.97

What the record says about Isovaleryl-ETHFPAIK([γGlu-Palmitoyl])FEPRSKGAK-NH2 [Isovaleric Acid-E-T-H-F-P-A-I-[Lys(IsoGlu_Palm)]-F-E-P-R-S-K-G-A-K-NH2] : T47D MSA IC50 is 289
